Numbers sourced from paper PMC10914731.

# Tested on: Caco-2 monolayers
# test_method_notes: in vitro
# measurement_parameters: human, Caco-2
*1 amine or outer side, *2 acyl side, *3 side chain or, on linkers, in order; H or OH if unused. Where a SMILES comes first, the peptide text is derived from it. [ ]: non-standard residue; d: D form. Trp(1-(1,1-Me2-allyl)) = C=CC(C)(C)n1cc(C[C@H](N)C(=O)O)c2ccccc21; Ala(3R-Me,3-isobutenyl) = CC(C)=C[C@@H](C)[C@H](N)C(=O)O; NMeTrp(1-Me) = CN[C@@H](Cc1cn(C)c2ccccc12)C(=O)O; X1 = C#CCn1cc(C[C@H](N[*:1])C(=O)[*:2])c2ccccc21; NMeLeu(5-OH,4R) = CN[C@@H](C[C@@H](C)CO)C(=O)O; Phe(βR-OMe) = CO[C@H](c1ccccc1)[C@H](N)C(=O)O; Trp(1-Me) = Cn1cc(C[C@H](N)C(=O)O)c2ccccc21; NMeL = CN[C@@H](CC(C)C)C(=O)O
Caco-2 Int. Perm of 2 or higher: fulfilled. Under 2: not fulfilled.

See these solved cases before continuing.
molecule	target_desc	label_class
CO[C@H](c1ccccc1)[C@@H]1NC(=O)[C@H](C)NC(=O)[C@H](C[C@@H](C)CO)N(C)C(=O)[C@H](Cc2cn(C)c3ccccc23)NC(=O)[C@H](CCC(=O)N(C)C)NC(=O)[C@H](CC(C)C)N(C)C(=O)[C@H](C(C)C)NC1=O [SI-74] (cyclo(A[Phe(βR-OMe)]V[NMeL]E(NMe2)[Trp(1-Me)][NMeLeu(5-OH,4R)]))	Caco-2 monolayers	not fulfilled
C#CCn1cc(C[C@@H]2NC(=O)[C@H](C(C)C)NC(=O)[C@H](CC(C)C)N(C)C(=O)[C@H](C(C)C)NC(=O)[C@H]([C@H](OC)c3ccccc3)NC(=O)[C@H](C)NC(=O)[C@H](C[C@@H](C)CO)N(C)C2=O)c2ccccc21 [Compound 5] (cyclo(A[Phe(βR-OMe)]V[NMeL]V[X1][NMeLeu(5-OH,4R)]))	Caco-2 monolayers	fulfilled

Exercise: Dear colleague, could you confirm whether COC(c1ccccc1)C1NC(=O)C(C)NC(=O)C(CC(C)CO)N(C)C(=O)C(Cc2cn(C)c3ccccc23)NC(=O)C(Cc2cn(CCCCCn3cc(CC4NC(=O)C(CC(C)C)N(C)C(=O)C(C(C)C)NC(=O)C(C(OC)c5ccccc5)NC(=O)C(C)NC(=O)C(CC(C)CO)N(C)C(=O)C(Cc5cn(C)c6ccccc56)NC4=O)nn3)nn2)NC(=O)C(CC(C)C)N(C)C(=O)C(C(C)C)NC1=O (centres unmarked) [Compound 12] has Caco-2 Int. Perm at or above 2?
Key: not fulfilled

Exercise: Determine whether measured Caco-2 Int. Perm meets or exceeds 2 for C=CC(C)(C)n1cc(C[C@@H]2NC(=O)[C@H]([C@H](C)C=C(C)C)NC(=O)[C@H](CC(C)C)N(C)C(=O)[C@H](C(C)C)NC(=O)[C@H]([C@H](OC)c3ccccc3)NC(=O)[C@H](C)NC(=O)[C@H](C[C@@H](C)CO)N(C)C2=O)c2ccccc21 [dCymC] (cyclo([Trp(1-(1,1-Me2-allyl))][NMeLeu(5-OH,4R)]A[Phe(βR-OMe)]V[NMeL][Ala(3R-Me,3-isobutenyl)]))
Key: fulfilled

Exercise: Could you please find out whether CO[C@H](c1ccccc1)[C@@H]1NC(=O)[C@H](C)NC(=O)[C@H](C[C@@H](C)CO)N(C)C(=O)[C@H](Cc2cn(C)c3ccccc23)N(C)C(=O)[C@H](CCC(=O)N(C)C)NC(=O)[C@H](CC(C)C)N(C)C(=O)[C@H](C(C)C)NC1=O [SI-76] (cyclo(A[Phe(βR-OMe)]V[NMeL]E(NMe2)[NMeTrp(1-Me)][NMeLeu(5-OH,4R)])) has Caco-2 Int. Perm that meets 2 or exceeds it?
Key: fulfilled
